Assay explanation: protein stability index of a GFP-peptide fusion (GPS, HEK-293T) (PSI 1-6); higher = more stable;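 further: 24-mer peptide tiles fused after GFP, lentivirally expressed, FACS-sorted into six equal bins by GFP/DsRed ratio, decoded by Illumina sequencing, PSI is the read-weighted mean bin number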
Test context: treatment: DMSO; c terminus: a fixed tail appended
Assay endpoint: protein stability index
Answers are plain numbers.

Known results for sequences:
>>> result("AKARDLYKGRQLQGCPGAKKHEFL [SMOC2]")
3.03
>>> result("DAGEGIQCSQRMLSFSDALLSIIA [TMEM175]")
2.25
>>> result("FAESLQCKVDCEANLTPNVGGYFV [P3H4]")
2.22
>>> result("PPPPPLPDPTPPEPEEEILGSDDE [SRPK2]")
5.51
>>> result("RHYAYLRDSLSHLVPALRLPGRKL [INTS4]")
2.31
>>> result("WKIAPAMAAGNTVIAKPSELTSVT [ALDH8A1]")
3.12

For each listed entry, give its protein stability index.
1. ASSPSIRQKKLMHKLQEEKAFREE [CCDC70]
2. EISEAFTSTGFDRHTSPVFSPANP [BCL2L13]
3. VLQMWHIVDKCTELLREGRASATT [ZBTB22]
4. LLCPETYVWVPIEQCLPSLENSKY [ATE1]
5. KKINSNQLENEQSQENSINPIQKE [SPANXN3]
6. LFTDLFDRKGYMFDYEYDWIGKQL [CSNK1G3]
7. SEATLPAQMSTLHVSPPPSADPAR [PDLIM4]

4.24
3.9
2.19
2.19
5.66
2.24
5.26
